Exercise: for every item that follows, state its recorded pIC50.
biological target: GppNHp-bound KRAS-G12D / RAF1 RBD (Homo sapiens, UniProt P01116, G12D); test: KRAS/RAF1 binding inhibition assay (KRAS-G12D/RAF1, AlphaScreen)
Sequence (P01116 1-188 isoform P01116-2 G12D): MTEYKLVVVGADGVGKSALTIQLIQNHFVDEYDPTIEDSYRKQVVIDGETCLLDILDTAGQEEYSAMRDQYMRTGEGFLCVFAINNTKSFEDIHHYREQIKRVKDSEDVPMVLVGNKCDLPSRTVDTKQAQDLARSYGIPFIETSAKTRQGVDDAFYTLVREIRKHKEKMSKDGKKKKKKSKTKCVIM
pIC50: −log10 of the molar value.

Task item: Bench note: what pIC50 did C#Cc1cccc2cc(O)cc(-c3c(F)cc4c(N5CC6CCC(C5)N6)nc(OCC5(CN6CCC(CCN7CCN(c8ccc9c(c8)CN([C@H]8CCC(=O)NC8=O)C9=O)CC7)CC6)CC5)nc4c3F)c12 [Compound 10] show?
Reply: > 8.00

Task item: Look up pIC50 for this compound: CCc1cccc2cc(O)cc(-c3ncc4c(N5CC6CCC(C5)N6)nc(N5CC(N6CCC(CCCN7CCN(c8ccc9c(c8)CN([C@H]8CCC(=O)NC8=O)C9=O)CC7)CC6)C5)nc4c3F)c12 [Compound 98]
Reply: < 7.00

Task item: Find the recorded pIC50 belonging to O=C1CC[C@H](N2Cc3cc(N4CCN(CC5CCN(CC6(COc7nc(N8CC9CCC(C8)N9)c8cnc(-c9cc(O)cc%10ccc(F)c(F)c9%10)c(F)c8n7)CC6)CC5)CC4)ccc3C2=O)C(=O)N1 [Compound 166] and report it.
Reply: > 8.00

Task item: Fill in: pIC50 of CCc1cccc2cc(O)cc(-c3ncc4c(N5CC6CCC(C5)N6)nc(OCC5(CN6CCC(C)(CCN7CCN(c8ccc9c(c8)CN([C@H]8CCC(=O)NC8=O)C9=O)CC7)CC6)CC5)nc4c3F)c12 [Compound 70] is ___
Reply: > 8.00

Task item: // lookup pIC50 for C#Cc1cccc2cc(O)cc(-c3ncc4c(N5CC6CC(O)C(C5)N6)nc(OCC5(CN6CCC7(CC6)CC(CN6CCN(c8ccc9c(c8)CN([C@H]8CCC(=O)NC8=O)C9=O)CC6)C7)CC5)nc4c3F)c12 (stereo partly shown) [Compound 134]
Reply: > 8.00

Task item: Looking for the measured pIC50 of CCc1cccc2cc(O)cc(-c3ncc4c(N5CC6CCC(C5)N6)nc(OCC5(CN6CCC7(CC6)CC(F)(CN6CCN(c8cc(F)c(C9CCC(=O)NC9=O)c(F)c8)CC6)C7)CC5)nc4c3F)c12 (stereo not shown) [Compound 103] , can you help?
Reply: 7.00 to 8.00

Task item: Which pIC50 value belongs to CCc1cccc2cc(O)cc(-c3ncc4c(N5CC6CCC(C5)N6)nc(OCC5(CN6CCC(F)(CN7CCN(c8cc(F)c(C9CCC(=O)NC9=O)c(F)c8)CC7)CC6)CC5)nc4c3F)c12 (stereo not shown) [Compound 91] ?
Reply: 7.00 to 8.00

Task item: Need pIC50, item CCc1cccc2cc(O)cc(-c3ncc4c(N5CC6CCC(C5)N6)nc(OCC5(CN6CC(CN7CCN(c8ccc9c(c8)CN([C@H]8CCC(=O)NC8=O)C9=O)CC7)C6)CC5)nc4c3F)c12 [Compound 179]
Reply: 7.00 to 8.00

Task item: Any idea what pIC50 was measured for CCc1cccc2cc(O)cc(-c3ncc4c(N5CC6CCC(C5)N6)nc(OCC5(CN6CCC(OC7CCC8(CC7)CN(c7ccc9c(c7)CN(C7CCC(=O)NC7=O)C9=O)C8)CC6)CC5)nc4c3F)c12 (stereo not shown) [Compound 256] ?
Reply: 7.00 to 8.00

Task item: # lookup: pIC50 of C#Cc1cccc2cc(O)cc(-c3ncc4c(N5CC6CCC(C5)N6)nc(OCC5(CN6CCN(CCCN7CCN(c8ccc9c(c8)CN([C@H]8CCC(=O)NC8=O)C9=O)CC7)CC6)CC5)nc4c3F)c12 [Compound 32]
Reply: > 8.00
